The origin of these recorded values is patent US20240074990A1.

Please respond with reported IC50 for every item in the list.
- target.system: SARS-CoV 3CL protease (Severe acute respiratory syndrome coronavirus)
- experiment.description: biochemical
- condition.parameters: IC50, SARS-CoV 3CL protease, FRET, three parallel tests
Report as a plain number; the unit µM is understood.

Input line: Recorded IC50 of Cc1cc2c(C(C)C)c(O)c(O)c(C=O)c2c(O)c1-c1c(C)cc2c(C(C)C)c(O)c(O)c(C=O)c2c1O (single isomer, unassigned) [(+)- gossypol, (+)-gossypol] , please.
Output line: 51.6

Input line: Recorded IC50 of Cc1cc2c(C(C)C)c(O)c(O)c(C=O)c2c(O)c1-c1c(C)cc2c(C(C)C)c(O)c(O)c(C=O)c2c1O [Gossypol, gossypol] , please.
Output line: 5.43
